# EXPERIMENT: Estimated solubility (buffer pH 7.4)
# Format: ADME
# TEST_PARAMETERS: read-out: S
Please use condition met whenever solubility is not below 200 µg/mL, and condition not met whenever it is.

Q: Determine whether measured solubility meets or exceeds 200 µg/mL for CC(C)[C@H](NC(=O)OCCN1CCOCC1)C(=O)N[C@@H](Cc1ccccc1)[C@@H](O)[C@H](Cc1ccccc1)NC(=O)[C@H](NC(=O)OCc1ccccc1)C(C)C
Ans: condition not met

Q: Now consider CC(C)[C@H](NC(=O)N(C)Cc1ccccn1)C(=O)N[C@@H](Cc1ccccc1)C(O)[C@H](Cc1ccccc1)NC(=O)[C@H](NC(=O)N(C)Cc1ccccn1)C(C)C (stereo not given in full) .
Ans: condition not met

Q: Now consider CC(C)[C@H](NC(=O)N(C)CCc1ccccn1)C(=O)N[C@@H](Cc1ccccc1)[C@@H](O)[C@@H](O)[C@H](Cc1ccccc1)NC(=O)[C@H](NC(=O)N(C)CCc1ccccn1)C(C)C .
Ans: condition met

Q: Now consider CC(C)[C@H](NC(=O)/C=C/c1cccnc1)C(=O)N[C@@H](Cc1ccccc1)C(O)[C@H](Cc1ccccc1)NC(=O)[C@H](NC(=O)/C=C/c1cccnc1)C(C)C (stereo not given in full) .
Ans: condition not met

Q: Now consider CC(C)[C@H](NC(=O)N(C)Cc1ccccn1)C(=O)N[C@@H](Cc1ccccc1)[C@@H](O)[C@@H](O)[C@H](Cc1ccccc1)NC(=O)[C@H](NC(=O)N(C)Cc1ccccn1)C(C)C .
Ans: condition met

----------
# Tested on: Human immunodeficiency virus 1
# EXPERIMENT: In vitro for inhibition of cytopathic effect of HIV-1 3B in MT-4 lymphocytes.
# Type: functional, organism-based
ASSAY_ENDPOINT: EC50 (nM)
Answers are plain numbers, in nM.

Study these solved cases before continuing.
| MOLECULE | EC50 (nM) |
| --- | --- |
| CC(C)[C@H](NC(=O)N(C)Cc1cscn1)C(=O)N[C@@H](Cc1ccccc1)[C@H](O)[C@H](O)[C@H](Cc1ccccc1)NC(=O)[C@H](NC(=O)N(C)Cc1cscn1)C(C)C | 500 |
| CC(C)[C@H](NC(=O)N(C)Cc1ccccn1)C(=O)N[C@@H](Cc1ccccc1)[C@H](O)[C@H](O)[C@H](Cc1ccccc1)NC(=O)[C@H](NC(=O)N(C)Cc1ccccn1)C(C)C | 170 |
| CC(C)[C@H](NC(=O)c1cc2ccccc2[nH]1)C(=O)N[C@@H](Cc1ccccc1)C(O)[C@H](Cc1ccccc1)NC(=O)[C@H](NC(=O)c1cc2ccccc2[nH]1)C(C)C (stereo partly specified) | 8900 |
| CC(C)[C@H](NC(=O)N(C)Cc1nccs1)C(=O)N[C@@H](Cc1ccccc1)[C@H](O)[C@H](O)[C@H](Cc1ccccc1)NC(=O)[C@H](NC(=O)N(C)Cc1nccs1)C(C)C | 390 |
| CC(C)[C@H](NC(=O)N(C)CCc1ccccn1)C(=O)N[C@@H](Cc1ccccc1)[C@H](O)[C@H](O)[C@H](Cc1ccccc1)NC(=O)[C@H](NC(=O)N(C)CCc1ccccn1)C(C)C | 12000 |
| CC(C)[C@H](NC(=O)OCc1cccnc1)C(=O)N[C@@H](Cc1ccccc1)C(O)[C@H](Cc1ccccc1)NC(=O)[C@H](NC(=O)OCc1cccnc1)C(C)C (stereo partly specified) | 6300 |
| CC(C)[C@H](NC(=O)OCc1ccccn1)C(=O)N[C@@H](Cc1ccccc1)[C@@H](O)[C@@H](O)[C@H](Cc1ccccc1)NC(=O)[C@H](NC(=O)OCc1ccccn1)C(C)C | 450 |
| CC(C)[C@H](NC(=O)OCc1cccnc1)C(=O)N[C@@H](Cc1ccccc1)[C@@H](O)[C@@H](O)[C@H](Cc1ccccc1)NC(=O)[C@H](NC(=O)OCc1cccnc1)C(C)C | 440 |

Here are 3 molecules. What values of EC50 were reported for them?
1. CC(C)[C@H](NC(=O)N(C)Cc1nccs1)C(=O)N[C@@H](Cc1ccccc1)[C@@H](O)[C@@H](O)[C@H](Cc1ccccc1)NC(=O)[C@H](NC(=O)N(C)Cc1nccs1)C(C)C
2. CC(C)[C@H](NC(=O)OCc1ccncc1)C(=O)N[C@@H](Cc1ccccc1)[C@H](O)[C@H](O)[C@H](Cc1ccccc1)NC(=O)[C@H](NC(=O)OCc1ccncc1)C(C)C
3. CC(C)[C@H](NC(=O)NCc1ccccn1)C(=O)N[C@@H](Cc1ccccc1)C(O)[C@H](Cc1ccccc1)NC(=O)[C@H](NC(=O)NCc1ccccn1)C(C)C (stereo partly specified)

Ans:
[1700, 600, 6100]

Reference for the values: ChEMBL document CHEMBL1126582
